- Tested on: Saccharomyces cerevisiae
- ASSAY_METHOD_TEXT: protein stability index of tFT-peptide fusion (C-terminal peptide) (PSI (0-1 scale)); higher = more stable (slower turnover)
- COND: genetic background: das1 deletion; temperature: 30 C
OBSERVED_PROPERTY: protein stability index
One number for each entry.

Give me protein stability index for each of these sequences, listed below.
1. NIREARYEQQLK [CTF4 C-terminal 12 aa]
2. HEVDTEKINIFQ [YML003W C-terminal 12 aa]

## Output
0.733
0.729

---

- Tested on: Saccharomyces cerevisiae
- ASSAY_METHOD_TEXT: protein stability index of tFT-peptide fusion (C-terminal peptide) (PSI (0-1 scale)); higher = more stable (slower turnover)
- COND: genetic background: wild type; temperature: 30 C
Tick Met if protein stability index is 0.7 or greater. Tick Not met if protein stability index is less than 0.7.

Completed entries (count: 3):
## Input Can "LLAFSPFLPLPP" be said to have protein stability index at or above 0.7?
## Output Not met

## Input Threshold query (protein stability index >= 0.7) on "KKKHKKKKKKKE"
## Output Not met

## Input Answer whether protein stability index of "HPPPHPPFPPRF" is greater than or equal to 0.7.
## Output Met

In the following, a different sequence is considered.
## Input Answer whether protein stability index of "RGILGAGGAGRG" is greater than or equal to 0.7.
## Output Met

---

- System: Saccharomyces cerevisiae
- ASSAY_METHOD_TEXT: protein stability index of tFT-peptide fusion (C-terminal peptide) (PSI (0-1 scale)); higher = more stable (slower turnover)
- COND: genetic background: cdc34-1; temperature: 37 C
Task for the reader: assign each of the following sequences its reported protein stability index.
Numbers only.

Recorded protein stability index, per entry:
Entry "IFHWLYLLIALI" ; protein stability index = 0.459

Field protein stability index (entry "KLCVGLVLSFVC" ) reads 0.47

The recorded protein stability index for "VAFGVASGWCWF" is 0.748

The recorded protein stability index for entry "MIILGFILYFFW" equals 0.4

Look up protein stability index for the entries below, preserving their order.
1. GWRRRIWLCRLQ
2. GFSEGRLTIPVY
3. GVVCVLGFALFV
4. CFPFYVSCLLVL
5. HTYSFRLLFIFL
6. AVVCSRLVLFCL
7. LFTSGNSLVLVH

## Output
0.575
0.453
0.403
0.306
0.378
0.591
0.211

Report protein stability index for each item below.
1. SQSNQSIIRKNV
2. VSISLCVLCPVF
3. GWGVFFVMRIQV
4. LRFVCALGYCVW
5. LFGRVLSGILSV
6. YFFFPILCFCFF
7. CCSRFLMLRILV
8. FGVLLVWWYGLF

## Output
[0.7, 0.268, 0.175, 0.577, 0.687, 0.439, 0.197, 0.236]

---

- Tested on: Saccharomyces cerevisiae
- ASSAY_METHOD_TEXT: protein stability index of tFT-peptide fusion (C-terminal peptide) (PSI (0-1 scale)); higher = more stable (slower turnover)
- COND: genetic background: wild type; temperature: 30 C
Quick rule for you: protein stability index at 0.7 or higher means TRUE, lower means FALSE.

## Input State whether the measured protein stability index reaches 0.7, counting equality as reaching it, for NGRYVDTDFDSM [LCB5 C-terminal 12 aa]
## Output FALSE
